- System: THP-1 cells
- Experiment summary: apoAI-dependent HDL-generating reaction in THP-1 cells (cholesterol and phospholipid taken out into the medium)
- Assay type: cell-based, human
- Applied conditions: apoAI-dependent, non-treated cells = 100
Property: Release of HDL Cholesterol (Relative Ratio %)

| Molecule | Observed value |
| --- | --- |
| CC1(C)SC2(C=C(C(C)(C)C)C(=O)C(C(C)(C)C)=C2)C2(C=C(C(C)(C)C)C(=O)C(C(C)(C)C)=C2)S1 | 148 |
| CC(C)(C)c1cc(-c2cc(C(C)(C)C)c(O)c(C(C)(C)C)c2)cc(C(C)(C)C)c1O | 137 |
| CC(C)(C)C1=CC(=C2C=C(C(C)(C)C)C(=O)C(C(C)(C)C)=C2)C=C(C(C)(C)C)C1=O | 159 |
| CC(C)(Sc1cc(C(C)(C)C)c(O)c(C(C)(C)C)c1)Sc1cc(C(C)(C)C)c(O)c(C(C)(C)C)c1 [Probucol, reference compound] | 0 |
